# system name: T1, NPNA2 peptide (Ac-[residues removed]-NH2) (Plasmodium falciparum (synthetic CSP …)
# T1 construct: source: synthetic peptide, bought: Innopep Inc
# procedure details: ITC; peptide in the syringe, Fab (~10 uM) in the cell; DPBS; 25 C; single-site binding model; triplicate; apparent affinity
# assay conditions: both partners purified
endpoint: Kd (nM)
Unit nM implied. Number only.

binder	endpoint	unit spec	val
Fab311 (Fab, V domains shown, also called mAb311; source: ExpiCHO cells, purified (HiTrap Protein G, SEC)) VH: EVQLVESGGGVVPPGRSLRLSCATSGFTFSNYGMHWVRQAPGKGLEWVAIIWYDGSRNFYAASVEGRFTISRDNSKNTLYLQMNSLRVEDTAVYYCARAAYYDTSGYGDYWGQGTLVTVSS VL: ESVLTQPPSVSGAPGQTVTISCTGGSSNIGAGYDVHWYQQLPGTAPKLLIYGNINRPSGVPDRFSGSKSGTSASLAITGLQAEDEADYYCQSYDRRLSGSWVFGGGTKLTVL	Kd	nM	152
Fab364 (Fab, V domains shown, also called mAb364; source: ExpiCHO cells, purified (HiTrap Protein G, SEC)) VH: QVQLVESGGGVVQPGGSLRLSCAASGFTFSGYGMHWVRQVPGKGLEWVAIIWFDGSQKYYADSVQGRFTISRDNSKKTLFLRMNSLRAEDTAVYYCAKVHDDEPTQDYWGQGTLVTVSS VL: DIQMTQSPSTLSASVGDRVTITCRASQGISTSLAWYQQKPGKAPKLLIYKASSLESGVPSRFSGSGSGTEFTLTITSLQPEDFATYYCQQYKRYWTFGQGTKVEIK	Kd	nM	47
Fab317 (Fab, V domains shown, also called mAb317; source: ExpiCHO cells, purified (HiTrap Protein G, SEC)) VH: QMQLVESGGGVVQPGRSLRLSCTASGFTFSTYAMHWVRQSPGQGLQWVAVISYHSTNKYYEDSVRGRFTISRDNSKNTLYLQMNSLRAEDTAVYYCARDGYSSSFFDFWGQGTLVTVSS VL: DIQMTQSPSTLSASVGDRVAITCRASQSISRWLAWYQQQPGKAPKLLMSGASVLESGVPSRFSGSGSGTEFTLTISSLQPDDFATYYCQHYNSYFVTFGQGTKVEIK	Kd	nM	132

Continue with the next binder.
Fill in: Kd of Fab239 (Fab, V domains shown, also called mAb239; source: ExpiCHO cells, purified (HiTrap Protein G, SEC)) VH: QVQLVESGGGVVQPGRSLRLSCAASRLTFRNFGMHWVRQTPGKGLEWVAVIWHDGSNKFYADSVEGRFTISRDNSKNTLYLQMNSLRDEDTAIYYCAKDWGGASDRVFDYWGRGTLVIVSS VL: DIQMTQSPSTLSASVGDRVTITCRASQSVSTSLAWYQQKPGKAPNLLIYQASTLYRGVPSRFSGSGSGTEFTLTIGSLQPDDFATYYCQHYNSYSRITFGQGTRLEIK is ___
641

All figures here come from paper PMC7887213.
